Could you please report measured Growth Rate for the items listed next?
Test system: HEK-293T
procedureDetails: Incucyte cell viability with HEK293T; further: unitless GR value; below 1 slowed growth and below 0 cell loss
Type: toxicity, cell-based
conditionParameters: human, 18 h, 10 µM, compound concentration 10 uM, replicate number 1, timepoint 18 hours
Answer with the value's number alone.

Task: Recorded Growth Rate of `CCCCC/C=C\C/C=C\C/C=C\C/C=C\CCCC(=O)OC(CO)CO` , please.
Output: 0.64

Task: What does the data say about its Growth Rate? Entry: `Cc1cc(C)cc([C@H]2c3cc(C)ccc3NC(=O)CN2C(=O)c2ccc(Br)s2)c1`
Output: 0.58

Task: What does the data say about its Growth Rate? Entry: `COc1c(Nc2ccc(S(C)(=O)=O)nc2C)ncnc1OC1CCN(C(=O)OC(C)C)CC1`
Output: 0.51

Task: Query (compound): `COc1cc2c(Oc3ccc(NC(=O)C4(C(=O)Nc5ccc(F)cc5)CC4)cc3F)ccnc2cc1OCCCN1CCOCC1` ; field requested: Growth Rate
Output: -0.65

Task: I have this compound here, `CCCCC(=O)N(Cc1ccc(-c2ccccc2-c2nnn[nH]2)cc1)[C@H](C(=O)O)C(C)C` , and I need its recorded Growth Rate.
Output: 0.6

Task: Give the measured Growth Rate of `C[C@H]1CN(C[C@H](Cc2ccccc2)C(=O)NCC(=O)O)CC[C@@]1(C)c1cccc(O)c1` .
Output: 1

Task: Report Growth Rate for `CC(C)(C)c1ccc(CSc2cnn(C(C)(C)C)c(=O)c2Cl)cc1` please.
Output: 0.13

Task: Dear colleague, I am looking for the recorded Growth Rate of the following compound: `CNC(=O)[C@H]1O[C@@H](n2cnc3c(NCc4cccc(I)c4)ncnc32)[C@H](O)[C@@H]1O`
Output: 0.64

Task: Query: Growth Rate; subject: `NC(=O)c1cc2c(-c3ccc(C(=O)NCc4ccnc(Cl)c4)s3)cccc2s1`
Output: -0.18

Task: Consider the compound `Cc1cc(O)c(-c2ccc([C@@H](C)CN(C)C)cc2)c2c1[nH]c(=O)c1sccc12` and give its measured Growth Rate.
Output: -0.48

Task: Given the entry `Cc1ccccc1N1CCN(S(=O)(=O)C[C@]23CC[C@H](C[C@@H]2NC(=O)[C@@H](N)CCS(C)(=O)=O)C3(C)C)CC1.Cl` , report its measured Growth Rate.
Output: 0.84

Task: Item `CC(=O)c1ccc2c(c1)[C@@H]1C=CC[C@@H]1[C@H](c1cc3c(cc1Br)OCO3)N2` has what recorded Growth Rate?
Output: -0.14

Task: If you can, please state the reported Growth Rate value of `CC[C@H]1CN2CCc3cc(OC)c(OC)cc3[C@@H]2C[C@@H]1C[C@H]1NCCc2cc(OC)c(OC)cc21` .
Output: -0.56

Task: Which Growth Rate value is on record for `NCCc1c[nH]c2ccc(C(N)=O)cc12.O=C(O)/C=C\C(=O)O` ?
Output: 0.9

Task: Using the record for CCC(=O)OCC(=O)[C@@]1(OC(=O)CC)[C@@H](C)C[C@H]2[C@@H]3CCC4=CC(=O)C=C[C@]4(C)[C@@]3(Cl)[C@@H](O)C[C@@]21C [BECLOMETHASONE DIPROPIONATE] , report its Growth Rate.
Output: 0.62

Task: So what's the measured Growth Rate for this one? `CC(C)n1cc(-c2ccc(N3CCN(C)CC3)c(NC(=O)c3ccc(-c4ccncc4)o3)c2)cn1`
Output: -0.16

Task: I would be grateful if you could share the reported Growth Rate for `CC(C)n1cnc2c(Nc3cccc(Cl)c3)nc(N[C@H]3CCCC[C@@H]3N)nc21` .
Output: -0.35

Task: Need Growth Rate of `O=C(N[C@@H]1CC[C@@H](c2cccc(F)c2F)CN(CC(F)(F)F)C1=O)N1CCC(n2c(=O)[nH]c3ncccc32)CC1` , thanks.
Output: 0.54

Task: Quick one: Growth Rate of CS(=O)(=O)N1CCCC(NC(=O)[C@H](CCC2CCCCC2)NC(=O)c2ccc(CNc3ncnc4c3nnn4-c3ccccc3)cc2)C1 (stereo not given in full) ?
Output: -0.23

Task: Requested read-out: Growth Rate. Entry: `COC(=O)Nc1nc2ccc(C(=O)c3cccs3)cc2[nH]1`
Output: -0.22

Task: Need Growth Rate, item Nc1cnc(N2CCc3cc(S(=O)(=O)Nc4c(F)cc(Cl)cc4F)cc(N4CCCC4=O)c32)nc1 [TP-020n]
Output: 0.61

Task: Query (compound): `CCc1cc2c(cc1-c1cccc(S(=O)(=O)F)c1)C(C)(C)c1[nH]c3cc(C#N)ccc3c1C2=O` ; field requested: Growth Rate
Output: 0.78

Task: Consider the compound shown here: `COC1(C[S@@+]([O-])c2ccccc2)CCN(CCc2c[nH]c3ccc(F)cc23)CC1` What is its recorded Growth Rate?
Output: 0.91

Task: Which Growth Rate value belongs to CC(COc1ccccc1)N(CCCl)Cc1ccccc1.Cl (stereo not given) [PHENOXYBENZAMINE HYDROCHLORIDE] ?
Output: 0.49

Task: I'd like to know its Growth Rate. The compound in question is C[C@H]1[C@H](OC(=O)CCC(=O)O)O[C@@H]2O[C@@]3(C)CC[C@H]4[C@H](C)CC[C@@H]1[C@@]24OO3 [ARTESUNATE]
Output: -0.07

Task: Field request: Growth Rate | item: `O=C(O)c1ccccc1S(=O)(=O)NCCCCN1C(=O)c2cccc3cccc(c23)C1=O`
Output: 0.82

Task: Request the reported Growth Rate associated with Cl.Cl.OCCOCCN1CCN(C(c2ccccc2)c2ccc(Cl)cc2)CC1 (stereo not given) [HYDROXYZINE HYDROCHLORIDE]
Output: 0.19

Task: Query: Growth Rate; subject: `C[C@]1(O)CC[C@H]2[C@@H]3CCC4=CC(=O)CCC4=C3C=C[C@@]21C`
Output: 1

Task: Reported Growth Rate, compound CO/C1=C/C(C)=C\[C@@H](C)[C@@H](O)[C@@H](C)C/C(C)=C\C=C/[C@H](OC)C([C@@H](C)[C@@H](O)[C@H](C)[C@@]2(O)C[C@@H](O)[C@H](C)[C@@H](C(C)C)O2)OC1=O (stereo not given in full) : ____
Output: -0.45

Task: Requested field: Growth Rate. Item: `CC(C)Cc1ccc([C@@H](C)C(=O)NS(C)(=O)=O)cc1`
Output: 0.7

Task: Look at this compound and give its reported Growth Rate. `COc1cc2nc(N3CCN(C(=O)COc4c(OC)cccc4C(C)C)CC3)nc(N)c2cc1OC.Cl.Cl`
Output: 0.21

Task: Requested read-out: Growth Rate. Entry: `CC(C)Oc1ccc(Cc2ccc(NC3=NCCN3)cc2)cc1`
Output: 0.16

Task: Requested read-out: Growth Rate. Entry: CN1[C@@H]2CC[C@H]1C[C@@H](OC(=O)C(CO)c1ccccc1)C2 (stereo not given in full)
Output: 0.6

Task: Name the recorded Growth Rate for `Nc1nccc(-c2ccn3c(N)nccc23)n1` .
Output: 0.93

Task: Param item = `Fc1cccc(/C=N/N=C/c2cccc(F)c2)c1` ; retrieve measured Growth Rate.
Output: 0.89

###

Exercise: state measured Growth Rate for each of the compounds provided.
System: HEK-293T
procedureDetails: Incucyte cell viability with HEK293T; further: unitless GR value; below 1 slowed growth and below 0 cell loss
Assay type: toxicity, cell-based
conditionParameters: human, 24 h, 10 µM, compound concentration 10 uM, replicate number 1, timepoint 24 hours
Hey, just send me the number, nothing else.

Task: Requested read-out Growth Rate, target or system HEK-293T, entry COc1cc2nc(N3CCN(C(=O)C4CCCO4)CC3)nc(N)c2cc1OC.Cl.O.O (stereo not given) [TERAZOSIN HYDROCHLORIDE]
Output: 0.87

Task: # returns recorded Growth Rate (system: HEK-293T) for `O=C(NCCO)c1cccc(-c2cc(Nc3ccc(OC(F)(F)F)cc3)ncn2)c1`
Output: 0.15

Task: Lab note: need Growth Rate for `NCCc1c[nH]c2ccc(C(N)=O)cc12.O=C(O)/C=C\C(=O)O` on HEK-293T, anyone have it?
Output: 0.9

Task: Give Growth Rate (HEK-293T) of the following compound: CCc1ccccc1C(=O)Nc1n[nH]c2c(C)c(F)c(C3C(C#N)=C(C)N(C)C(C)=C3C#N)cc12 [BAY-3827]
Output: 0.55

Task: Which measured Growth Rate belongs to CCC(=O)N1CC[C@H](Nc2ncnc3c2CN(c2cnc(OC)c(C(F)(F)F)c2)CC3)C1 [LENIOLISIB] , tested on HEK-293T?
Output: 0.96

###

For each of the molecules below, state its Growth Rate.
Tested on: Fibroblast
procedureDetails: Incucyte cell viability with human fibroblast; further: unitless GR value; below 1 slowed growth and below 0 cell loss
Format: toxicity, cell-based
conditionParameters: 12 h, 10 µM, compound concentration 10 uM, replicate number 1, timepoint 12 hours
I'd appreciate a reply containing only the number, no unit.

Task: Which measured Growth Rate value corresponds to `CCCCCCCCCCCCCCC[C@@H](O)[C@@H](N)COP(=O)(O)O` ?
Output: 0.44

Task: Bench note: what Growth Rate did `O=C(Nc1cc(-c2cn[nH]c2)ccc1N1CCOCC1)c1ccc(-c2ccc3ncccc3c2)o1` show?
Output: 0.82

Task: Can you share its Growth Rate? I mean this molecule: `C[C@@](Cc1c[nH]c2ccccc12)(NC(=O)Nc1ccc([N+](=O)[O-])cc1)C(=O)NCC1(c2ccccn2)CCCCC1`
Output: -0.66

Task: // Growth Rate lookup, key: Cc1c(Cc2ccc3ccccc3n2)c2cc(F)ccc2n1CC(=O)O [TIMAPIPRANT]
Output: 0.51

Task: Look up Growth Rate: Cc1c(C(=O)NN2CCCCC2)nn(-c2ccc(Cl)cc2Cl)c1-c1ccc(Cl)cc1 [RIMONABANT]
Output: 0.04

Task: Look up Growth Rate for this molecule: `CN(C)C(=O)N1CC[C@H](NC2=Nc3cc(F)ccc3N(CC(F)F)c3ccc(Cl)cc32)C1`
Output: 0.6

Task: Looking for the measured Growth Rate of `NC(=O)c1cccc(-c2cc(Nc3ccc(OC(F)(F)F)cc3)ncn2)c1` , can you help?
Output: -0.48

Task: Dear colleague, I am looking for the recorded Growth Rate of the following molecule: Cl.Cl.NCCc1c[nH]cn1 [HISTAMINE DIHYDROCHLORIDE]
Output: 0.77

Task: # query: Growth Rate of entry `COc1ccccc1N1CCN(CCCCNC(=O)c2ccc3ccccc3c2)CC1.Cl`
Output: 0.23

Taken from ChEMBL document CHEMBL5058564.
